test: protease stability score; higher = more stable; yeast display proteolysis, trypsin and chymotrypsin
Listed here: items and their measured protease stability score.
Form: value (number only, do not type unit).

Some entries whose results are on file:
DERTKQFNELLHIFIRDLHTGDEESHERMMDPNVRTEVGEFRMHGRENVRHWWHEWLRLLGLDRIEVRVRDHHVIDGRLRIDVELKQGDKNIDTHVILVVINGRMHSQRYEFH | 0.717
DEDEEQAERAIRIYTEVLNTGNEEESERMADPHVRIIVNGVILHGREMFYQYVHEWRVDIRVILRHVKVFEGWVDVEGEFNSHLEVNGRHENNRSKVRLHILKVNGVWLIHEVRVH | 1.5
TEVEKKAREINKELSSALLTGDEHIMRRLADPHVRIFFNGQHLVGMEEMMKVLLHLRIKWKDIKIEDVKIQGDFMHIDTIEHGILEVGDKRIEFHREVEIYITKINGRWMIEELTYR | 1.34
SEDEKLFRLSIEIYLRVSRTGDEHMAHEYADPHVRLRIGDKEFHGREEFIKWVNELRVEELRLKEVRVIGDKAHLRTEVHTYIGDKEINYEMEIHQTKIDGKWFLREMKLK | 0.486
DEEEEDAERLLRELITWLYTGDFESLEKLMDPTTKLIQGDKTFIGREYLSKLFHDWGHTNVRAKLEDIKVVNGQVHIYGRLHYGDKTSETHFIVRKVNGKWLIKIVEFR | 1.62

Moving on to another sequence below.
According to the records, this sequence SEDSERAREVWEDLFKAILTGDEDLLRELVDPNVRLEIGDKELVGWEHMIYHLRDHLRRYKNMRLELRIRHVEHQGDKLHLNVLLILIQGDKRIEFEVEVLIEKVNGRWILKEIRIK displays protease stability score of 1.38

---

experiment: protease stability score; higher = more stable; yeast display proteolysis, trypsin and chymotrypsin;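 also: relative to predicted unfolded state with 0 unfolded-like and 1 meaning tenfold more protease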
reportedMetric: protease stability score
Reply with the value as a number alone.

SDDEEDVWRMAEIILKLFYTGDEEKFRNLADPNVRLNFNGRNFIGRENLEKHLRELRIHRIELREMDLKVINGRAEVRVRGFVDGEIDGQRYHSEVRLIMIITKVDGRWIIESIEFEQL | 2.59
SERHKDMKRLIDEWRKSYETGDEDQLRRLLDPTTRVDFNGVEYHGRHEAVEIMSQIRVEHIDIRELHVQGNKAEVRVRMHGHFDGQEEEVEFIIYMKKVNGRWVVHQEEHR | 1.16
DKEEEKSREFFRIFYELWLTGNEELNERLADPNVYVDINGQEIHGMHVAKNVLTRELEELRVKDIKIDDYKTQGEKAVFHGKWEGYVDGRDSMEHVTVILTVVDGKVDNMSIKFD | 0.97
DHIEEELIRWLELLRNALETGDEELVVKLVDPRYRLIIGDKHHHGMEEWSKILKEESERVKNARIELHLRHLRLFNGQADMEVENVVRYNGVTIIIDVRIHLLKVNGRWKEREVREG | 1.33
SEEEEILRHILERFANVLHTGDFDWLSKMADPHVRFDVNGREFHGREEVIQAVRDWRERLGIKHLHVKDIRLQGDKMHLNGRMEFDGVIEDTRIIHQVVDGRLRSIEIRTK | 0.16

The recorded protease stability score for entry SEEDEELKEWLEEFVHALKTGDENLLQRLADPNTRLIFDGRKFHGREEYRKNYEHLRHRIDHIHDEKSTTVHLINGKVTVESRLDGEINGKRIIFKTIIFYWKFDGRWFLRSEEIR equals 0.935

---

assay: protease stability score; higher = more stable; yeast display proteolysis, trypsin and chymotrypsin;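 also: relative to predicted unfolded state with 0 unfolded-like and 1 meaning tenfold more protease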
reportedMetric: protease stability score

DEDTEAAREMLEIIVKSLFTGDEKSLLRLADPNWKLHQGNFSWHGRESVRRFHKEIRVHFDDIRVHRFSTINGRVHIDGHIHITVHIDGQTIHIDSDTTWHMVIINGKMHHAIIIHV | 0.881
DREEEHTRTLAKELFEIFLTGDFDRFSELADPNTRLRIIINGVEFRDHGMEFWQWWVDEIRIHSYRMRDMRVFNGQAILLSTSDVEFNGRRHETTVEFVLVIVNGRIKSVTIIVR | 1.69
DEEEHIFQELIELWQTAMATGDEERTDRLLDPNAKIVINGVELHGMDEIKRLLEQMRLHVHDVKIDEIKFQGDYLHIDTTSDIIMRINGREHRIIVKTTVRMLKFDGRWWLHVISIR | 1.93
SELEELWKRLLEEFVRLLHTGNEERILDLMDPHARVHTTFENHEFHDHGREAFHIMWEEFGINHLEFHRVRLFNGQVDITGSVNVNGREMETRIHLYIINGRVHQTIFRFR | 0.996
SKHKEQTEHVMKTWEHAMRTGDEDRVSHLLDPNVRFEVGNKEFHGREEMSRHIVEMRFTELRLRDVETQGDKVHFEGEMRGIIDGKEETNKLIVIIYKVNGRWHIRSVHVE | 0.618

HEEEEKARYFLEIFFHHLLTGDWHILMELLDPDVRMEYDGKKFHGRESAIEIWRELRVTEIHIRHIHMFNGRVYADTEMRGIVNGVNTNTHSELYVRKYDGRWKVEFVVVH yielded protease stability score of 2.31

---

experiment: protease stability score; higher = more stable; yeast display proteolysis, trypsin and chymotrypsin;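 also: relative to predicted unfolded state with 0 unfolded-like and 1 meaning tenfold more protease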
Rule: Criterion met for protease stability score not less than 1, Criterion not met for anything less.

HKLDEITKDMLEIFEKHSQTGDFQSLAKNVDPHARVDWDGRQFHGREDVQEVMIRLGVDHIEFKRIDIQGEWVHMDGQVYVNGRTTRTEFVSLKVNGRWYIHELRVR | Criterion not met
GEEQEDIKKFLEDDMEAWSTGDFRQLKRNMDPHVRIVINGRHLHGMETFEHFFEHLRVRITSLELKRVEAVGDKVSYDGELDFELDYNGRRLSQRTRVEFRIEKINGRWILHYVIFR | Criterion not met
DEIENLIVKLAMDFIKDEITGDEERLRHLADPHTRHHIGDKHFHGMELIMKHWKTMADRFDHLEVRLEHVRVQGDKVDVHGHIIEEYNGKRIEHHIRLNVEIVDGRVTRYHVKID | Criterion met
SEETKEKHDFVEEWRHFLETGDEHELTRMIDPNVRVIINGQEHHGREAFEEMLKRIDVIHHVVIRKERSINGVIRLNFEVDGVINGRRHRTEFHIIVLKINGRWLIHQISIH | Criterion met
DESEKDSHMASLHIIELIETGDWRELRELLDPRTRLHIGDKDIHGREEALRNIIRVWHHMRIHRVHIRSIRLQGDYVRVEFEVDGTIDGKHHRIEVEFVAQKIDGRWHLKSEIYH | Criterion met

Problem: Decide: is the reported value of protease stability score for DEHKELHERLLKMWLSIWETGDEERLRRNADPDTRFKHDFNGREETVVGRENVAKVLEDLRRELGIDHVHIRHFDVQGNYVDLTTELHFNGRIVNFHIIIRVVNGKLKEIHFELR equal to or greater than 1?
Result: Criterion met

Problem: Quick check: does DEEEKHDTFMTEIFKEIYQTGDEDALATMADPDTRLIIRIGDYTEENHGWKFFIEKLMRLIRKVKNLRYIETRDHVFDGQSHIHGILIINGRKREVEIIIYIFDGRIKSIEIRIV have protease stability score greater than or equal to 1?
Result: Criterion met

Problem: Does the sequence SEDDEHSRDAFEIFMRLIRTGDWHHLLNLLDPHVRIDFNGREHIGREEATRILVEWRIRNIRLRHYDMVNGRAHFHTESDVEFNGRRDKIEIHMVVLKIDGRWFIHSMIIH have recorded protease stability score that is 1 or more?
Result: Criterion met

Problem: Form field: protease stability score at least 1? Entry: SEWEEISRKISRDWTEWLETGDFETFMNYVDPNARYRQGDKDLHGMETLHRYIYHMRMHIRIRRIDHQGDYILIDGELELRQGDKTHRFESIIYIIVIDGKLRRFEIRER
Result: Criterion not met

Problem: Reported protease stability score at or above 1? DEDERNLREFLRRMVEHWLTGNEESLKRLIDPEVRIHIGDKDLVGREEEERYHRQMRSDRLHVELDSVDIVGDKLQLHITIHIDSIVNGRRLDIKYRHTLHVRKINGRWILEESEIK
Result: Criterion not met

Problem: Test whether the sequence DEDFEYALRVAKLFWEAVFTGDEKTLEHLLDPNVRIDINGRHIHGREELIKLFHEIRIHMHEIRIDDIRVQGNYLLVHGHVILEVNINGRTTRIETEVRIEISKVNGRWIIRQSEHT records protease stability score of 1 or higher.
Result: Criterion met

---

experiment: protease stability score; higher = more stable; yeast display proteolysis, trypsin and chymotrypsin;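 also: relative to predicted unfolded state with 0 unfolded-like and 1 meaning tenfold more protease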
reportedMetric: protease stability score
# output: bare number, no unit

Some solved entries appear below for comparison.
DEEERLTRDWAKQWIHFLETGDEDRLMELADPHVRIDVNGQEFHGREQFNKFMSHLTTHARFETKEVQVIGNKTHIDTRMSIDGKTTETLVILIIWNGRLKELRIHHH | 1.47
DEDEHMVKHAIELILKSIITGDEDLWKRLFDPDVKIEVGDKDVHGRELATEFMKLWRDHMRFTHHEITRVETYNGRAHIHGRDRVTIDGQEMTRESHLVMIKVDGRWFLHSVHIK | 1.07
SEEEEIVREALKIWFHAMITGDERTLNEMVDPNVRVDVDGKELIGRKHMVELLRRFKNITIRHWHIKHLDIQGDKIEIDTRLDVEVNGRQEILTEKFHARKVDGRWFLSTREER | 2.19
DEEEIEIRRIWERELHWRSTGDEKSLIELMDPRTIIEINGREIHGREEADRHVHEFAEKYKNVRVRYFVREIEVQGEFVHVHTEITLDFDGVEIRFFMILIILKIDGRWLSHRVIVH | 0.81
DEMEEESHTVLKLIVESFRTGDEEEVRHLADPNVRLDVDGQRNHGWKMLLKFFRQIRWHDVELHDIELQGDKMHIIGHVDGNVNGRRRRLDTHILLVKIDGKWRLELVHIH | 1.55
DELDSILEEFARVFMQNLETGDEDSSRHYLDPHYRVELDIGDWTIQMHGWRSDHIRRRYLGADHERILIRDYRVYNGRIRVEGQMDITVNGKRVTYHTEFILHVVNGKATRVSMKFE | 0.707
EEDQEIFEQAMRELINSNLTGNEHRMQELADPHVRLIVGDKTYIGRESIWRFLFEWRIDHIEIRSYDIQGDKVHVDIEVHMRYGDKSTVSRMELRAEKVNGRWHIHFIRIH | 1.75
SEDEKVYLKLVEDWIRIWRTGDEDMAEKLADPNVKIIIGDKSTHGREEWTRVVRELRTTEFDAHSITVVDGVVELDGRSRGDINGVEMNSHFTFILYIVDGRLKSQEIEVH | 2.03

So for TEEHELFEKLARLIIKWLHTGDEERINEYADPNYRTHIGDKTVIGREEREKLIRWLLEHMRIDHIELKDIRVINGKVEIDGKIHGQINGQEVTRHSIIYLIFVDGVIKHISIEWR , the logged protease stability score turned out to be 1.35

Per the record, SDEEEDIERAIRLMHEIHETGDESVWEHLADPHVKVDFNGQERHGREDMIKIWHYLGVKHVFFRDIRVQGEFLVVHSEDNVDGKTFQIRYLVFKINGRWFLEEVEFD has protease stability score of 0.942

sequence SEDDEYSELFVKTWFEILRTGDEEKIRRMLDPDARSTINGKDLHGRERIEEHLHELFLRLGLSNVKVHLHDYRFIGDKLHLHGKLTINGQEFDTKVDAWKFNGRWFMHQIHLR , protease stability score observed: 1.39

Note to self: protease stability score recorded for SEDEEDVEQWVRIWFDLLLTGDEDSLRKLIDPHARVEVNGVIQIGREEVARFLSQMRVHDSTLRDIKIYDGRVEIDNEEDVEFNGQRKRVKVILISNKFDGRWTNEHEKYE was 0.449
